biological target: recombinant human CXCR2 (Homo sapiens); construct: TEV protease site; Gal4-VP16 transcription factor; assay: CXCR2 Tango assay; type: cell-based; conditions: mean pIC50 of multiple test results; stimulated with 80 nM hCXCL1; reporter gene blue/green emission ratio; read-out: pIC50 (CXCR2 Tango assay) (converted)
Sequence (P25025 whole entry, the tested form may be a part): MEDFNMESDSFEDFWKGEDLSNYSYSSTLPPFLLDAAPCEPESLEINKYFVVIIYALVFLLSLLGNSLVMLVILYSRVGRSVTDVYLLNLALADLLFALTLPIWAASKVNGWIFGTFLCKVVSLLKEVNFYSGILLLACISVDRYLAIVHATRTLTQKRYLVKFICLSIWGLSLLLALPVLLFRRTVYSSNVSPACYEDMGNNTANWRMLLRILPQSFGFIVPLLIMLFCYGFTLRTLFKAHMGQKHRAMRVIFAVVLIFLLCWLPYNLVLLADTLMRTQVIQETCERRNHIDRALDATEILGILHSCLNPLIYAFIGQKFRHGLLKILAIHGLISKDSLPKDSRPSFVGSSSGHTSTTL
Measured IC50 of individual entries

Here's what some known entries look like.
>  <compound>
CC1=CCC[C@H]1NC(=O)Nc1ccc(Cl)c(S(=O)(=O)[C@H]2CC[C@H](O)C2)c1O (racemic) [Compound 45]

>  <result>
≤ 1 nM

$$$$
>  <compound>
CC(C)S(=O)(=O)c1c(Cl)ccc(NC(=O)NC2CCC=C2Cl)c1O (stereo not shown) [Compound 21]

>  <result>
≤ 1 nM

$$$$

Look at this compound and give its reported IC50. CC(C)(C)S(=O)(=O)c1c(Cl)ccc(NC(=O)NC2CCC=C2Cl)c1O (stereo not shown) [Compound 3]
≤ 10 nM

Look at this compound and give its reported IC50. O=C(Nc1ccc(Cl)c(S(=O)(=O)C2CCOCC2)c1O)NC1C=CCC1 (stereo not shown) [Compound 176]
≤ 10 nM
